B1: ZNF263 (parent)
chain: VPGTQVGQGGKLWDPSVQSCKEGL

# Variants of: B1
# protocol-summary: protein stability index of a GFP-peptide fusion (GPS, HEK-293T) (PSI 1-6); higher = more stable;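 further: lentivirally expressed fusions sorted by FACS into six bins by GFP to DsRed ratio, PSI derived from sequencing read proportions per bin multiplied by bin number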
# experimental-conditions: c terminus: a fixed tail appended
Recorded measurements of protein stability index, one per entry
readout: protein stability index

- mutation-annotation: "T4S"
  reported: 4.08
- mutation-annotation: "Q8N"
  reported: 4.24
- mutation-annotation: "L24H"
  reported: 4.27
- mutation-annotation: "V1H"
  reported: 4.17
- mutation-annotation: "Q8F"
  reported: 4.17
- mutation-annotation: "T4D"
  reported: 4.85
- mutation-annotation: "G3Q"
  reported: 4
- mutation-annotation: "G23N"
  reported: 4.34
- mutation-annotation: "V6H"
  reported: 3.51
- mutation-annotation: "K11C"
  reported: 4.57
- mutation-annotation: "D14I"
  reported: 3.66
- mutation-annotation: "T4W"
  reported: 3.55
- mutation-annotation: "S16K"
  reported: 4.11
- mutation-annotation: "Q18Y"
  reported: 4.01
- mutation-annotation: "L12V"
  reported: 4.42
- mutation-annotation: "T4Q"
  reported: 4.23
- mutation-annotation: "W13M"
  reported: 4.41
- mutation-annotation: "Q5S"
  reported: 4.13
- mutation-annotation: "K21W"
  reported: 3.52
- mutation-annotation: "V1L"
  reported: 3.53
- mutation-annotation: "E22A"
  reported: 3.06
- mutation-annotation: "G23D"
  reported: 4.36
